# Experimental details: Selectivity index, CC50 for african green monkey Vero cells to IC50 for Trypanosoma cruzi 320I01 epimastigote
# Format: functional
Measurement kind: Selectivity Index

Compound	Measurement kind	Test result
Clc1ccccc1[C@@H]1C[C@@H]2Cc3ccccc3N1O2 (relative stereo)	Selectivity Index	5.71
Fc1ccc2c(c1)C[C@H]1C[C@@H](c3ccccc3)N2O1 (relative stereo)	Selectivity Index	>39
Fc1ccccc1[C@@H]1C[C@@H]2Cc3ccccc3N1O2 (relative stereo)	Selectivity Index	>3
O[C@@H]1Cc2ccccc2N[C@H](c2c(F)cccc2Cl)C1 (relative stereo)	Selectivity Index	>3
Fc1cccc(Cl)c1[C@@H]1C[C@@H]2Cc3cc(Cl)ccc3N1O2 (relative stereo)	Selectivity Index	>6
O[C@@H]1Cc2cc(Cl)ccc2N[C@H](c2ccc(Br)cc2)C1 (relative stereo)	Selectivity Index	2.12
O[C@@H]1Cc2cc(Cl)ccc2N[C@H](c2ccccc2Cl)C1 (relative stereo)	Selectivity Index	6.91
O[C@@H]1Cc2ccccc2N[C@H](c2ccccc2)C1 (relative stereo)	Selectivity Index	>9
